FYI, the data here is from PubChem BioAssay.

Recorded measurements of composite z-score, one per entry
Tested on: Wnt5a (protein binding on small-molecule microarray)
Assay: small molecules binding Wnt5a protein – biophysical, small-molecule microarray, 635/667 nm fluorescence, primary screen (AID 1142);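 further: fluorescence read at 667 nm with signal to noise per printed feature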
Conditions: 635 nm fluorescence, higher = more signal
Please reply with the number alone, leaving off any unit.

Before answering, review these 3 worked examples.
compound	composite z-score
O=C1C2C=CC(C(O)c3c(F)cccc3Cl)N(Nc3ccc([N+](=O)[O-])cc3)C2C(=O)N1c1ccccc1 (centres undefined)	0.469
C[N+](C)(C)CCCCNC(=O)[C@H]1C[C@H]2C(=O)N[C@@H](Cc3ccccc3)C(=O)N2[C@H]1c1cccc(OCCO)c1	0.278
CC(C)C(CO)N1C(=O)[C@@H]2C3C(=O)OCCC/C=C\[C@H]3OC23C=CCN(Cc2ccccc2)C(=O)[C@@H]13 (some centres undefined)	0.0204

Query composite z-score for COC(=O)C(CC#Cc1ccc2c(c1)[C@]1(C(=O)N2)[C@H](c2ccc(OCCO)cc2)N2[C@H](c3ccccc3)[C@H](c3ccccc3)OC(=O)[C@H]2[C@@H]1C(=O)N1CCCCCCC1)C(=O)OC 1.33

Note down composite z-score recorded for COCCOC(=O)N1C(=O)[C@@]2(c3cc(C#CCCO)ccc31)[C@H](c1ccc(OCCO)cc1)N1[C@H](c3ccccc3)[C@H](c3ccccc3)OC(=O)[C@H]1[C@@H]2C(=O)N1CCCCCCC1 0.827

Please give measured composite z-score of the following entry: CC=CC(O)C1C=CC2C(=O)NC(=O)C2N1Nc1ccc(Cl)cc1Cl (centres undefined) -0.242

Give the reported value of composite z-score for this record: CO[C@H]1O[C@H](CO)[C@@H](OC(=O)Nc2ccc3c(c2)OCO3)[C@H](OC(=O)Nc2ccccc2-c2ccccc2)[C@H]1OC(=O)Nc1ccccc1-c1ccccc1 1.07

In one line, give reported composite z-score of the entry COc1ccc([Si](C)(C)[C@H]2[C@H](CCO)O[C@@]3(C(=O)N(Cc4cccc(N5C(=O)c6ccccc6Oc6ccccc65)c4)c4ccccc43)[C@@H]2C)cc1 . 0.0511

Hello, please tell me recorded composite z-score for this one: COC(=O)[C@@]1(Cc2ccc(OC)cc2)[C@H]2c3cc(C(=O)N4CCCC4)n(Cc4ccc(C(F)(F)F)nc4)c3C[C@H]2CN1C(=O)c1ccccc1 0.426

Return reported composite z-score. Input compound: CCCC=C(CCC)[C@@H](NC(=O)c1ccc(C(F)(F)F)cc1)c1ccc(C(F)(F)F)cc1 0.63

Recall and state the measured composite z-score for O=C1O[C@H](c2ccccc2)[C@H](c2ccccc2)N2[C@H]1[C@@H](C(=O)O)[C@]1(C(=O)Nc3ccc(C#CCCO)cc31)[C@H]2c1ccc(OCCO)cc1 . 0.48

For C=C(CCCC)/C(=C/C[C@@H](OC(C)=O)c1ccc(CO)o1)c1cnc2ccccc2c1 , write its composite z-score. 0.401

Tell me its composite z-score given COC(=O)c1cccc([C@H]2OC(=CC(=O)OC(C)C)C[C@@H](c3cccc(C(=O)OC)c3)O2)c1 as the entry. 1.19

Query composite z-score for NC(=O)N1C(=O)C2C(C1=O)C1C=C(CCCO)C2C(c2ccc(CN3CCCC3)cc2)N1Cc1cc2c(cc1Br)OCO2 (centres undefined) -0.0793

* * *

Molecular target: Homeobox protein Hox-A13 (Mus musculus) (UniProt Q62424)
Sequence (Q62424 whole entry, looked up): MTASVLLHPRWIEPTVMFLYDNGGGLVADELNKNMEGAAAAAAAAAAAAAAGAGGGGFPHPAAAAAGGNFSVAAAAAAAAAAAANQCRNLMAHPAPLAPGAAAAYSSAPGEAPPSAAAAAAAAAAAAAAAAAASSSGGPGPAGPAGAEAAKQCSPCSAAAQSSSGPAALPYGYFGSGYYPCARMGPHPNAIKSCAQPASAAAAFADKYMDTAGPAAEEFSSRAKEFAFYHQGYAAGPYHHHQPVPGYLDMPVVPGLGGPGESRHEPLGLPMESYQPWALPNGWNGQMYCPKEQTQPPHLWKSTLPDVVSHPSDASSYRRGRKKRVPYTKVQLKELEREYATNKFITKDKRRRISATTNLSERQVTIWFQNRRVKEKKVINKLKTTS
Test: disruptors of Hoxa13 oligonucleotide interaction – biochemical, fluorescence polarization, labeled oligonucleotide, primary screen (AID 1185)
Details: Hoxa13:DNA binding, 15 min, higher = more signal, called active from +8 up or from −8 down
Decide by z-score: equal to or exceeding -4 means satisfied, less means not satisfied.

compound	testedTarget	classAssignment
CC(C)(C)OC(=O)CC[C@@]1(C(=O)NCCN2CCOCC2)N=C(c2ccc(OCCCO)cc2)O[C@@H]1c1ccccc1CN=[N+]=[N-]	Homeobox protein Hox-A13 (Mus musculus) (UniProt Q62424)	not satisfied
CC1CC/C=C\[C@H]2OC34C=CCN(c5ccc(Cl)cc5)C(=O)[C@H]3N(CCCCCCO)C(=O)[C@]4(C)C2C(=O)O1 (stereo partly specified)	Homeobox protein Hox-A13 (Mus musculus) (UniProt Q62424)	not satisfied
COc1ccc([Si](C)(C)[C@H]2[C@H](CCO)O[C@@]3(C(=O)N(Cc4cccc(N5C(=O)c6ccccc6Oc6ccccc65)c4)c4ccccc43)[C@@H]2C)cc1	Homeobox protein Hox-A13 (Mus musculus) (UniProt Q62424)	satisfied
COC(=O)[C@]1(CCC(=O)OC(C)(C)C)N=C(c2ccc(OCCCO)cc2)O[C@@H]1c1ccccc1N=[N+]=[N-]	Homeobox protein Hox-A13 (Mus musculus) (UniProt Q62424)	satisfied
COCCOC(=O)N1C(=O)[C@@]2(c3cc(C#CCCO)ccc31)[C@H](c1ccc(OCCO)cc1)N1[C@H](c3ccccc3)[C@H](c3ccccc3)OC(=O)[C@H]1[C@@H]2C(=O)N1CCCCCCC1	Homeobox protein Hox-A13 (Mus musculus) (UniProt Q62424)	not satisfied

Could you now look at the following compound, please?
Kindly determine if z-score recorded for C=C(CCCC)/C(=C/C[C@H](OC(=O)c1ccncc1)c1ccccc1OCCO)c1cc(C(=O)OC)ccc1OC is above or exactly -4. not satisfied
